Species on record: Gallus gallus
Experiment: Compound dose that inhibits transformation of chick embryo fibroblasts by Rous sarcoma virus, after 15 hr of incubation was determined in vitro. Compound dose that causes 16 % inhibition was reported.
Assay type: functional
measured.property: ID16 (µM)
The response must be a number in µM with no trailing unit.

Look up and state reported ID16 for `Cc1ccsc1/C=N/N=C(/N)NO`
5.89

Look up and state reported ID16 for `N/C(=N\O)N/N=C/c1cccs1`
3.64

Look up and state reported ID16 for N=C(N)NO.O=S(=O)(O)O [HYDROXYGUANIDINE SULFATE]
192.7

Look up and state reported ID16 for `N/C(=N\O)N/N=C/c1cccc(I)c1`
0.9

Look up and state reported ID16 for `N/C(=N\O)N/N=C/C1CCCCC1`
9.11

Look up and state reported ID16 for `N/C(=N/N=C/c1ccccn1)NO`
1.01

Look up and state reported ID16 for `CCCCCCOc1cccc(/C=N/N=C(\N)NO)c1`
1.18

Look up and state reported ID16 for `Cc1cccc(/C=N/N=C(\N)NO)n1`
36

Look up and state reported ID16 for `N=C(NN)NO`
15.63

Look up and state reported ID16 for `N/C(=N\O)N/N=C/c1cccc(C(F)(F)F)c1`
8.19

Look up and state reported ID16 for `NC(/N=N/c1c(O)[nH]c2ccc(F)cc12)=N\O`
5.36

Look up and state reported ID16 for `COc1cccc(/C=N/NC(=N)NO)c1`
7.15

Look up and state reported ID16 for `CCCCOc1cccc(/C=N/N=C(\N)NO)c1`
2.66
